- test.target: T1, Bovine carbonic anhydrase II (bovine, UniProt P00921 2-260)
- T1 construct: Commercial protein; also called BCA
- T1 sequence (P00921 2-260 limits assumed): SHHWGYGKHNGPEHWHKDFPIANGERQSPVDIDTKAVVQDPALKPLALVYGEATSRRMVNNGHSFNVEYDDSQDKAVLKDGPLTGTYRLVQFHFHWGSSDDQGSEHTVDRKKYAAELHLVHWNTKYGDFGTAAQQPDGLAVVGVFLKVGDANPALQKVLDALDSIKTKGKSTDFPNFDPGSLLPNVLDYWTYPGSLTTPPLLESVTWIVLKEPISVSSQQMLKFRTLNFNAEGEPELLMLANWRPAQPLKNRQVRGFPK
- experiment: ITC, replicate [row SA-TRPA, middle panel]
pKd: −log10 of the molar value. SA = 4-(aminooxymethyl)benzenesulfonamide joined by oxime ligation to the periodate-oxidised N-terminal serine

{"binder": "{SA}-TRPA-NH2 (also: N-terminal SA cap oxime-linked, made from oxidised N-terminal Ser) [SA-TRPA]", "pKd": 7.51}
